List of Curve Class values.
- Assayed system: CIB1 and αIIb interaction (CIB1-GST : F-αIIb peptide) (Homo sapiens, UniProt Q99828)
- Construct: made in house; host or cells: BL-21 plus RIL cells (E. coli)
- Sequence (Q99828 whole entry): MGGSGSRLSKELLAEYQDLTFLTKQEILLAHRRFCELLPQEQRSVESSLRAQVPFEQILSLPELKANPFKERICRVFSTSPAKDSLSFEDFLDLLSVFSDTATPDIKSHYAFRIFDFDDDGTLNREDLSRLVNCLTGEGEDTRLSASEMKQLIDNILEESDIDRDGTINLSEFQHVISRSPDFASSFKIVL
- Protocol text: FP assay, 1536-well qHTS format (primary and confirmatory screen)
- Assay type: binding
- Condition: qHTS primary screen hits, Table S2; negative sign = inhibitory curve
Answer using only a numeral; do not append any unit.

[[record]]
molecule = "O=C(O)C(F)(F)F.O=C(c1ccc(-c2cc(O)c3ncccc3c2)cc1)N1CCNCC1 [NCGC00183806-01]"
result_value = -2.2

[[record]]
molecule = "Cc1ccc(C)c(SC2=NS(=O)(=O)c3cc(C(=O)Nc4ccc5ncccc5c4)ccc32)c1 [NCGC00238689-01]"
result_value = -2.4

[[record]]
molecule = "N#Cc1ccc(S(=O)(=O)Nc2cnccc2C(=O)Nc2nc(-c3ccccc3)cs2)cc1.O=C(O)C(F)(F)F [NCGC00344937-01]"
result_value = -2.4

[[record]]
molecule = "C#CCCC(=O)Nc1sc2c(c1-c1nc3ccccc3s1)CCN(C(C)C)C2.O=C(O)C(F)(F)F [NCGC00185086-01]"
result_value = -1.4

[[record]]
molecule = "C[C@H](O)C(=O)C1=Nc2c(nc(N)[nH]c2=O)NC1 [NCGC00094391-03]"
result_value = -2.2


Assign Curve Class to the following record: O=S1(=O)OC(c2ccc(O)cc2)(c2ccc(O)cc2)c2ccccc21 [NCGC00013109-03]
-2.4

Tell me its Curve Class given Nc1ccc(CNc2ccc(S(=O)(=O)Nc3nccs3)cc2)c(O)c1.O=C(O)C(F)(F)F [NCGC00273962-01] as the entry.
-2.4

Answer with reported Curve Class of Oc1ccc2ccccc2c1SSc1c(O)ccc2ccccc12 [NCGC00186047-02, IPA-3, reference compound]
-1.4

Provide one value: measured Curve Class of Cl.Cl.Nc1ccc(/N=N/c2ccccc2)c(N)n1 [NCGC00018130-09]
-2.4

Return reported Curve Class. Input molecule: Cc1ccc(NS(=O)(=O)c2ccc3[nH]c(=O)[nH]c3c2)cc1C.O=C(O)C(F)(F)F [NCGC00187759-01]
-2.4

Item O=C(O)C(F)(F)F.OCc1ccc(-c2ccc3ncnc(NCc4nccs4)c3c2)o1 [NCGC00238383-01] : provide Curve Class
-2.2

====

- Assayed system: GST-CIB1 : F-scrambled peptide (Homo sapiens)
- Construct: made in house; host or cells: BL-21 plus RIL cells (E. coli)
- Sequence (Q99828 whole entry): as above
- Protocol text: FP scrambled-peptide counter screen, 1536-well format
- Format: binding
- Condition: counterscreen, qHTS curve class; negative sign = inhibitory curve
Curve Class (counterscreen) of -1 or higher: class 1. Under -1: class 0.

# count of solved cases: 3
[[record]]
compound = "CCN1CCN(c2cccc(Nc3nn4c(=O)c5ccccc5nc4s3)c2)CC1.Cl"
assigned_label = "class 0"

[[record]]
compound = "O=C1c2cccc(O)c2C(=O)c2c(O)cccc21"
assigned_label = "class 1"

[[record]]
compound = "NC(=O)c1ccnc2c(O)cccc12.O=C(O)C(F)(F)F"
assigned_label = "class 1"


State whether the measured Curve Class (counterscreen) reaches -1, counting equality as reaching it, for O=C(Nc1nc(-c2ccccc2)cs1)c1ccncc1NS(=O)(=O)c1cccs1.O=C(O)C(F)(F)F
class 0

In plain terms: is recorded Curve Class (counterscreen) at least -1 for CC1=NN(c2ccc(C)c(C)c2)C(=O)/C1=N/Nc1cccc(-c2cccc(C(=O)O)c2)c1O ?
class 0

State whether the measured Curve Class (counterscreen) reaches -1, counting equality as reaching it, for O=C(O)C(F)(F)F.O=C(O)c1ccc(O)c2ncc(-c3n[nH]nc3-c3ccccc3)cc12
class 1
